METHOD DESCRIPTION: Toxicity in female SPF Kunming mouse assessed as survival rate at 200 mg/kg/day, sc measured after 24 hrs
Assay type: organism-based
DETAILS: in vivo
MEASURE: survival at 24 h (%)
Express the result in % but write the number alone.

Query: Which survival at 24 h is listed for "CCCCCCCC[N+](C)(C)CCCCOc1cc(OCCCC[N+](C)(C)CCCCCCCC)cc(OCCCC[N+](C)(C)CCCCCCCC)c1.[Br-].[Br-].[Br-]" ?
Response: 100

###

A collection of compounds and their measured MIC
Test system: Stenotrophomonas maltophilia
METHOD DESCRIPTION: Antimicrobial activity against Stenotrophomonas maltophilia assessed as inhibition of growth incubated for 18 hrs by CLSI guidelines based assay
Format: functional
Express the result in µg/mL but write the number alone.

CCCCCCCCCCCC[N+](C)(C)CCCCOc1cc(OCCCC[N+](C)(C)CCCCCCCCCCCC)cc(OCCCC[N+](C)(C)CCCCCCCCCCCC)c1.[Br-].[Br-].[Br-] :: 32
C[N+](C)(CCCCOc1ccccc1)CCCOc1cc(OCCC[N+](C)(C)CCCCOc2ccccc2)cc(OCCC[N+](C)(C)CCCCOc2ccccc2)c1.[Br-].[Br-].[Br-] :: 128
C[N+](C)(CCCCCOc1ccccc1)CCCCOc1cc(OCCCC[N+](C)(C)CCCCCOc2ccccc2)cc(OCCCC[N+](C)(C)CCCCCOc2ccccc2)c1.[Br-].[Br-].[Br-] :: 16

Query: // lookup MIC | system=Stenotrophomonas maltophilia | key= "CCCC[N+](C)(C)CCCCOc1cc(OCCCC[N+](C)(C)CCCC)cc(OCCCC[N+](C)(C)CCCC)c1.[Br-].[Br-].[Br-]"
Response: 128

###

METHOD DESCRIPTION: Selectivity index, ratio of HC50 for sheep red blood cells to MIC for Staphylococcus aureus
Assay type: toxicity, cell-based, RBC
DETAILS: read-out: Selectivity Index
MEASURE: selectivity ratio
I only need the number, thanks.

Examples with their reported selectivity ratio follow.
CCCCCCCCCC[N+](C)(C)CCCCOc1cc(OCCCC[N+](C)(C)CCCCCCCCCC)cc(OCCCC[N+](C)(C)CCCCCCCCCC)c1.[Br-].[Br-].[Br-] :: 8.5
CCCCCCCCCCCC[N+](C)(C)CCCOc1cc(OCCC[N+](C)(C)CCCCCCCCCCCC)cc(OCCC[N+](C)(C)CCCCCCCCCCCC)c1.[Br-].[Br-].[Br-] :: 1.25
CCCCCCCC[N+](C)(C)CCCCCOc1cc(OCCCCC[N+](C)(C)CCCCCCCC)cc(OCCCCC[N+](C)(C)CCCCCCCC)c1.[Br-].[Br-].[Br-] :: 1420
CCCCCCCCCCCC[N+](C)(C)CCCCCOc1cc(OCCCCC[N+](C)(C)CCCCCCCCCCCC)cc(OCCCCC[N+](C)(C)CCCCCCCCCCCC)c1.[Br-].[Br-].[Br-] :: 0.75

Query: Which selectivity ratio is listed for "CCCCCCCC[N+](C)(C)CCCCOc1cccc(OCCCC[N+](C)(C)CCCCCCCC)c1OCCCC[N+](C)(C)CCCCCCCC.[Br-].[Br-].[Br-]" ?
Response: 847

###

A collection of molecules and their measured CC50 at 24 h
METHOD DESCRIPTION: Cytotoxicity against human Gastric mucosal cells measured after 24 hrs by CCK-8 assay
Type: toxicity, cell-based, Gastric mucosal cell

Examples with their reported CC50 at 24 h follow.
C[N+](C)(CCCCCOc1cc(OCCCCC[N+](C)(C)CCCCOc2ccccc2)cc(OCCCCC[N+](C)(C)CCCCOc2ccccc2)c1)CCCCOc1ccccc1.[Br-].[Br-].[Br-] :: < 30 µg/mL
CCCCCCNC(=O)C[N+](C)(C)CCCCCCCCCCCC[N+](C)(C)CC(=O)NCCCCCC.[Br-].[Br-] :: 19.1 µg/mL

# input for lookup
Query: Which CC50 at 24 h is listed for "C[N+](C)(CCCCCOc1cc(OCCCCC[N+](C)(C)CCCOc2ccccc2)cc(OCCCCC[N+](C)(C)CCCOc2ccccc2)c1)CCCOc1ccccc1.[Br-].[Br-].[Br-]" ?
Response: < 30 µg/mL
